B1: PRAME (parent)
chain: KKLKIFAMPMQDIKMILKMVQLDS

- Variants of: B1
- METHOD_DESCRIPTION: protein stability index of a GFP-peptide fusion (GPS, HEK-293T) (PSI 1-6); higher = more stable;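 note: lentivirally expressed fusions sorted by FACS into six bins by GFP to DsRed ratio, PSI derived from sequencing read proportions per bin multiplied by bin number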
- CONDITION_DESCRIPTION: c terminus: a fixed tail appended
Note to self: values exactly at 3 are Y. So protein stability index at or above 3 is Y, below is N.

> print(dat)
   mutant.name  class.assignment
1         Q21A                 Y
2          A7Q                 N
3          F6A                 N
4         K18W                 Y
5         Q11F                 Y
6         M15A                 N
7         D12M                 Y
8          L3N                 N
9          I5V                 Y
